Values were extracted from ChEMBL document CHEMBL3433997.

molecular target: Solute carrier family 2, facilitated glucose transporter member 1 (Homo sapiens) (UniProt P11166); assay: ST_JUDE_LEISH: Cytotoxicity at 2uM final concentration against transgenic Leishmania Mexicana promastigotes LmGLUT1 that are glucose transport deficient and complemented with the human glucose transporter GLUT1. Activity is measured by DNA content using SYBR green in vitro; type: functional
Sequence (P11166 whole entry): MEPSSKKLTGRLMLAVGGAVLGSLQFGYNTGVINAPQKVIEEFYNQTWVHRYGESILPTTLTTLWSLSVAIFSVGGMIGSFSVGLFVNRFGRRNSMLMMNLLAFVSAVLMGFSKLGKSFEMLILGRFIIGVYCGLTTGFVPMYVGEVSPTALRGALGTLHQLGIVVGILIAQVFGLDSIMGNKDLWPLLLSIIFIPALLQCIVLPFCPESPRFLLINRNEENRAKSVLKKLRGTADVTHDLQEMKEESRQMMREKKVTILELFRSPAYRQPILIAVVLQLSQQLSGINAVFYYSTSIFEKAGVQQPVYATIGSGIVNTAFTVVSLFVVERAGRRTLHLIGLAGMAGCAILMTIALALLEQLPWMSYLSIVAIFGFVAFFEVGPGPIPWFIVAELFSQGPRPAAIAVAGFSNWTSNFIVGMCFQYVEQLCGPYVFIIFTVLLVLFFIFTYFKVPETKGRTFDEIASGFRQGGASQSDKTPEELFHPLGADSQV
Record form. Attribute: inhibition. Fill in for each entry.
Numbers only, in %.

Each compound below has a reported value. Please supply its inhibition.
1. COc1ccccc1Nc1nc(C)cc(NCc2ccc(-c3c(C)noc3C)cc2)n1
2. O=C(NCCCCN1CCC(c2ccc3c(c2OCc2ccccn2)CCCC3)CC1)c1ccc(NC(=O)c2ccc(Cl)cc2)cc1
3. CN1CCN(c2ccc(Nc3nc(N)c4ccn(C5CCC5)c4n3)cc2)CC1

(A)
1. 19.5
2. 2.21
3. 4.19

Each compound below has a reported value. Please supply its inhibition.
1. CCN(CC)CCN(Cc1ccc(-c2ccc(C(F)(F)F)cc2)cc1)C(=O)Cn1cc(Cc2cnn(C)c2)c(=O)n2nc(-c3ccccc3)cc12
2. c1ccc(CN2CCC(NCc3ccc(-c4cncc5ccccc45)cc3)CC2)cc1
3. c1cc(-c2ccc(CNCCCn3ccnc3)cc2)cc(-c2nc3ccccc3[nH]2)c1
4. Nc1ncc(-c2cccc(CCN3CCOCC3)c2)cc1-c1nc2cc(Br)ccc2[nH]1
5. N=C(N)c1ccc(C(=O)Nc2cccc(C(=N)N)c2)cc1
6. NC1CCCN(Cc2cccc(-c3ccc(-c4nc5ccccc5[nH]4)cc3)c2)C1 (centres undefined)
7. COc1ccc2ncc(F)c([C@@H](O)CN3CCC(NCc4cc(C#N)c5c(c4)CCO5)CC3)c2n1

(A)
[4.45, 0.33, 2.87, 14, -0.57, 7.18, 3.43]

Each compound below has a reported value. Please supply its inhibition.
1. CC(C)(C)c1ccc(C(=O)Nc2ccc(NC(=O)c3ccc([N+](=O)[O-])o3)cc2)cc1
2. N#Cc1ccc2c(c1)CCN(CCC1CCC(NC(=O)c3cc4ccc(Br)cc4[nH]3)CC1)C2 (centres undefined)
3. CCCCCCCNC(=O)NCC1CCCN(CCCCCNC(=O)/C=C/c2ccc(Cl)c(Cl)c2)C1 (centres undefined)
4. O=C1CCCN1CCCNCc1cccc(-c2ccc(-c3nc4ccccc4[nH]3)s2)c1

(A)
1: 3.39; 2: 1.19; 3: 1.71; 4: -0.73

Each compound below has a reported value. Please supply its inhibition.
1. CCCCCN1CCCN(Cc2cccc(NC(=O)c3cc4ccccc4s3)c2)CC1
2. COc1ccc2[nH]c(C)cc(=NN=Cc3ccc(Cl)cc3)c2c1
3. COc1cc(C)cc(CN2CCC(Cc3ccccc3)CC2)c1O
4. CCc1cn2c3c(cc(C(=O)N[C@@H](Cc4cccc(Cl)c4)[C@H](O)CNC4CCOCC4)cc13)N(C)S(=O)(=O)CC2
5. COc1ccc(-c2ccc(NC(=O)c3cccc(Cl)c3)cc2)cc1CNC(C)C
6. O=c1cc(NCCCNCc2cccc(I)c2)[nH]c2ccccc12

(A)
1. 1.99
2. 6.05
3. 0.53
4. 2.87
5. 4.75
6. 0.98

Each compound below has a reported value. Please supply its inhibition.
1. c1ccc(CCNCc2ccc(-c3cccc(-c4nc5ccccc5[nH]4)c3)cc2)nc1
2. COc1nc2c(CCN3CCC(NCc4ccc5c(c4)NC(=O)CO5)CC3)c(Cl)cnc2cc1F
3. CC(C)Oc1cccc(-c2ccc(C(=O)NCC3CCCN(Cc4cccc(C(F)(F)F)c4)C3)s2)c1 (centres undefined)
4. CC(C)Nc1nc(NCCc2c[nH]cn2)nc(NCc2ccc(Cl)c(Cl)c2)n1
5. CS(=O)(=O)c1ccc(CNCc2ccc(-c3cccc(-c4nc5cc(F)ccc5[nH]4)c3)cc2)cc1

(A)
[3.95, 3.07, -1.06, 3.82, 3.3]

Each compound below has a reported value. Please supply its inhibition.
1. CC(C)(C)c1ccc(OCC(=O)NC2CCN(c3ccnc4cc(Cl)ccc34)C2)cc1 (centres undefined)
2. COc1ccc2c(=O)ccn(CCN3CCC(NCc4ccc5c(n4)NC(=O)CS5)CC3)c2c1

(A)
1: 0.64; 2: 3.6

Each compound below has a reported value. Please supply its inhibition.
1. CS(=O)(=O)c1ccc(-n2nc(C(F)(F)F)cc2-c2ccc(C=NOCC(=O)O)o2)cc1
2. CC(=O)c1sc(NC(=O)Nc2ccc(C)cc2C)nc1C

(A)
[1.5, 14]

Each compound below has a reported value. Please supply its inhibition.
1. COc1cc2nc(C)nc(Nc3ccc(Oc4ccccc4)cc3)c2cc1OC
2. O=C(Nc1ccc(OC2CCN(Cc3ccsc3)C2)c(Cl)c1)c1ccco1 (centres undefined)

(A)
1. -2.63
2. 0.28
